# Tested on: MyD88^TIR (Homo sapiens, UniProt Q99836)
# Construct: MyD88 (residues 148–296); 6xHis; made in house; host or cells: E. coli BL21 (DE3)
# Sequence (Q99836 148-296): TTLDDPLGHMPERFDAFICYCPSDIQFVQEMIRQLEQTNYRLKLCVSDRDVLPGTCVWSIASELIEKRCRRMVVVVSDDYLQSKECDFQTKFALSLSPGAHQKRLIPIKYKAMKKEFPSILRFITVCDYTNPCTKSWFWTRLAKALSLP
# Experimental details: T‐Surf phage library (P8 and P3) selection against MyD88^TIR, four rounds, NGS read counts
# Assay type: binding
# Run parameters: P3_MyD88: rank by count after grouping
Quantity: Rank (after)

Use the examples below as a reference point.
• SSFREGLWRLLELSET = 145
• AVDIETEKIQTPLKNA = 157
• YAFTCHLQRYLVQRGV = 118
• RELGVVDDGSVSALEM = 410
• DHHLDLPRGKAIKPAILR = 162

(A) AVDKGIDKIQTPLKNA
(B) EWIREGLWRLLELSKK
(C) DHHLDLPRGKRLNRKFW
*Q* Highest Rank (after) first, then in falling order down to the smallest. # answer = labels listed in requested order
*A* A, C, B

----------
# Tested on: MAL^TIR (Homo sapiens, UniProt P58753)
# Construct: MAL (residues 79–221); 6xHis; made in house; host or cells: E. coli BL21 (DE3)
# Sequence (P58753 79-221): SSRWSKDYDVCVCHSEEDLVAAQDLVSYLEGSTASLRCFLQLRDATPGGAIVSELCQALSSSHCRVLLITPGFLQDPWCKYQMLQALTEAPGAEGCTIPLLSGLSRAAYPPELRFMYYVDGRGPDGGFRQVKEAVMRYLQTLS
# Experimental details: T‐Surf phage library (P8 and P3) selection against MAL^TIR, four rounds, NGS read counts
# Format: binding
# Run parameters: P3 library, 4R selection against MAL, rank after grouping
Quantity: P3_MAL Rank (after)

• YNLISQLYEALHLNRI = 645
• RLQEWRETLCQGHSRV = 650
• ESILDQLRRRSQSIAN = 591
• HQALWALMWAKHQTPI = 623
• ESILTKLRRSSQSIAN = 597

----------
# Tested on: MyD88^TIR (Homo sapiens)
# Construct: MyD88 (residues 148–296); 6xHis; made in house; host or cells: E. coli BL21 (DE3)
# Experimental details: T‐Surf phage library (P8 and P3) selection against MyD88^TIR, four rounds, NGS read counts
# Type: binding
# Run parameters: P8_MyD88: rank by NGS read count before grouping
Quantity: Rank (before)

* WDFASNMAQVWERLYY | 1596
* FDASTWFFQEWARFL | 1313
* DPQVPEWFYNRLFCQL | 2651

(P) DLYDILYLYGRHTIFV
(Q) WALDDLLQILQARELF
(R) SSRWALDELVQILHARELF
*Q* Kindly order the items shown according to Rank (before), from the highest value down. Answer with the labels in sequence, matching the requested order.
*A* R, P, Q

----------
# Tested on: MAL^TIR (Homo sapiens, UniProt P58753)
# Construct: MAL (residues 79–221); 6xHis; made in house; host or cells: E. coli BL21 (DE3)
# Experimental details: T‐Surf phage library (P8 and P3) selection against MAL^TIR, four rounds, NGS read counts
# Type: binding
# Run parameters: P8 library, selection against MAL TIR; rank by count after grouping
Quantity: P8_MAL Rank (after)

• LFFWESLKQLLRRAGL = 252
• WFYERLVILVLRDTKG = 250
• SEFIQKIILWLNTKIV = 203
• WFYELLVSLLLRDTKV = 221
• YFLHFLLFRRPENAYM = 268
• LFFCESLKQLLRSDGH = 244
• WFMMKFRTVLGKPTM = 216
• TFLIHQNNARMHANIL = 253
• LFYERLVSLMLRDTKG = 274
• AFFWAQLKRAGQSDD = 257
• WFYEPLVSLILRDTKL = 236
• NHWRNALTAAANLIGW = 248
• CFYQRLVSLILHDTKV = 256
• SSWWILKELQEILNYQ = 279
• AFLWTQLKSVLGNPTM = 242
• LFLWDSLKQPLRSDGR = 224
• AFLYLSDQSDPSDQF = 237
• WFYERLVSLILPVTKV = 229
